- tested-system: soluble guanylate cyclase (sGC) (Homo sapiens (Human), UniProt Q02108+Q02153)
- Sequence (Q02153 whole entry): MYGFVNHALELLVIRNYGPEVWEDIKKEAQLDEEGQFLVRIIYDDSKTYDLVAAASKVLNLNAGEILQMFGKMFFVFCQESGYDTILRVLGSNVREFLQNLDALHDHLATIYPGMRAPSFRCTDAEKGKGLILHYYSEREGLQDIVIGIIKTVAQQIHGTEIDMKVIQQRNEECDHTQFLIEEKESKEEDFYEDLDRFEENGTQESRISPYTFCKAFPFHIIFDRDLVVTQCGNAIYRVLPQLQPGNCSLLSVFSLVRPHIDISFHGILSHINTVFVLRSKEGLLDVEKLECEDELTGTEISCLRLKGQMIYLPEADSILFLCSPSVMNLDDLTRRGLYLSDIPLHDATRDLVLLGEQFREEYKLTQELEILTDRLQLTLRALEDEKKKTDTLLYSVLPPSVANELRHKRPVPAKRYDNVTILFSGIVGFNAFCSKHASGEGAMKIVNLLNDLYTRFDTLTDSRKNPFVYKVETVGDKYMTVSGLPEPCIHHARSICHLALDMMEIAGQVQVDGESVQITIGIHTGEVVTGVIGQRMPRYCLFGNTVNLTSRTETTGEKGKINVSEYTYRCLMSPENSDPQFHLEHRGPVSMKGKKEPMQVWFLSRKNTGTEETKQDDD
- Sequence (Q02108 whole entry): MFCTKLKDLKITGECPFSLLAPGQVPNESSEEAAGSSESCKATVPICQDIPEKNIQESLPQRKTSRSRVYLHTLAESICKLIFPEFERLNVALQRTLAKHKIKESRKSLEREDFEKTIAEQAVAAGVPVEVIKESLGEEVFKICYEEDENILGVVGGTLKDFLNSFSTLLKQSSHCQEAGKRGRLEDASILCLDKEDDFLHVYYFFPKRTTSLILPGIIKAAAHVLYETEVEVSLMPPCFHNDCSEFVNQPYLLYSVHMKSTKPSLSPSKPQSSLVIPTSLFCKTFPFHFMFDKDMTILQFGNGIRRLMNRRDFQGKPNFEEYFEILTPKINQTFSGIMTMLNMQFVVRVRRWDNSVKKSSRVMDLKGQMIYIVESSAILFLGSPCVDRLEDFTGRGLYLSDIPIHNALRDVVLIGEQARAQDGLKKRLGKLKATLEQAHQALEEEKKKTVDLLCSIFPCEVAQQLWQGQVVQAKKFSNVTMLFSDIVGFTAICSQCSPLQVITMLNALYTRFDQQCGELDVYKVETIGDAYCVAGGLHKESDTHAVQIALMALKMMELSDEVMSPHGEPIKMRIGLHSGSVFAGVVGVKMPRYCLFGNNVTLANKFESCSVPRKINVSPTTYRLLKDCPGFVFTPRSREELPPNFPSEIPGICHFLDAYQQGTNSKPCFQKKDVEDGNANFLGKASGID
- experimental-details: sGC-HEK-cGMP assay run with SNP incubation (HEK WC assay)
- Format: cell-based
- condition-label: read-out: HEK WC Assay (% Emax at 10 μM with 10 uM SNP)
Would you kindly list Emax for each of these compounds?

Here's what some known entries look like.
compound | tested-system | Emax
Nc1nc(-c2cc(-c3ccon3)n(Cc3ccccc3F)n2)ncc1NC(=O)c1cccc(F)c1 [Compound I-171] | soluble guanylate cyclase (sGC) (Homo sapiens (Human), UniProt Q02108+Q02153) | 100 to 120%
COc1ccccc1C(=O)Nc1cnc(-c2cc(-c3ccon3)n(Cc3ccccc3F)n2)nc1N [Compound I-166] | soluble guanylate cyclase (sGC) (Homo sapiens (Human), UniProt Q02108+Q02153) | 80 to 100%
Fc1ccccc1Cn1nc(-c2nc(Cl)cc(-c3cccnc3)n2)cc1-c1ccon1 [Compound I-301] | soluble guanylate cyclase (sGC) (Homo sapiens (Human), UniProt Q02108+Q02153) | 40 to 60%
CC1(C(=O)Nc2cnc(-c3cc(-c4ccon4)n(Cc4ccccc4F)n3)nc2N)CC1(Cl)Cl (centres unmarked) [Compound I-260] | soluble guanylate cyclase (sGC) (Homo sapiens (Human), UniProt Q02108+Q02153) | 100 to 120%

For each entry beneath this line, provide reported Emax.
1. CC(C)(C)OC(=O)n1c(=O)[nH]c2nc(-c3cc(-c4ccon4)n(Cc4ccccc4F)n3)ncc21 [Compound I-312]
2. Nc1nc(-c2cc(-c3ccon3)n(Cc3ccccc3F)n2)ncc1NC(=O)c1cnco1 [Compound I-188]
3. c1cnc(-c2cc(-c3ccon3)n(Cc3cncnc3)n2)nc1 [Compound I-208]
4. CC(F)(F)C(=O)Nc1cnc(-c2cc(-c3ccon3)n(Cc3ccccc3F)n2)nc1N [Compound I-226]

Reply text:
1: 20 to 40%; 2: 60 to 80%; 3: 10 to 20%; 4: 80 to 100%

----------
- tested-system: soluble guanylate cyclase (sGC) (Homo sapiens (Human), UniProt Q02108+Q02153)
- experimental-details: sGC-HEK-cGMP assay run with SNP incubation (HEK WC assay)
- Format: cell-based
- condition-label: read-out: HEK WC Assay (% Emax at 10 μM with 10 uM SNP)
quantity-kind: Emax

compound | tested-system | Emax
Nc1nc(-c2cc(-c3ccon3)n(Cc3ccccc3F)n2)ncc1NC(=O)c1ccncc1 [Compound I-176] | soluble guanylate cyclase (sGC) (Homo sapiens (Human), UniProt Q02108+Q02153) | 60 to 80%
Nc1nc(-c2cc(-c3ccon3)n(Cc3ccccc3F)n2)ncc1NC(=O)C12CC3CC(CC(C3)C1)C2 [Compound I-233] | soluble guanylate cyclase (sGC) (Homo sapiens (Human), UniProt Q02108+Q02153) | 80 to 100%
Oc1nc(-c2cc(-c3ccon3)n(Cc3ccccc3F)n2)ncc1C(F)(F)F [Compound I-216] | soluble guanylate cyclase (sGC) (Homo sapiens (Human), UniProt Q02108+Q02153) | 40 to 60%
FC(F)(F)c1ccccc1Cn1nc(-c2ncccn2)cc1-c1ccon1 [Compound I-201] | soluble guanylate cyclase (sGC) (Homo sapiens (Human), UniProt Q02108+Q02153) | 0 to 10%
Nc1nc(-c2cc(-c3ccon3)n(Cc3ccccc3F)n2)ncc1NC(=O)c1ccc(Cl)cc1 [Compound I-182] | soluble guanylate cyclase (sGC) (Homo sapiens (Human), UniProt Q02108+Q02153) | 80 to 100%
O=C(Nc1cnc(-c2cc(-c3ccon3)n(Cc3ccccc3F)n2)nc1O)c1ccccc1 [Compound I-158] | soluble guanylate cyclase (sGC) (Homo sapiens (Human), UniProt Q02108+Q02153) | 20 to 40%

For each entry beneath this line, provide reported Emax.
1. Cc1cccc(C(=O)Nc2cnc(-c3cc(-c4ccon4)n(Cc4ccccc4F)n3)nc2N)c1 [Compound I-183]
2. Fc1ccccc1Cn1nc(-c2nc(Cl)cc(C(F)(F)F)n2)cc1-c1ccon1 [Compound I-273]

Reply text:
1. 100 to 120%
2. 20 to 40%
